Measured pKi on 5-hydroxytryptamine receptor 1A (Homo sapiens, UniProt P08908) follows.
Sequence (P08908 whole entry): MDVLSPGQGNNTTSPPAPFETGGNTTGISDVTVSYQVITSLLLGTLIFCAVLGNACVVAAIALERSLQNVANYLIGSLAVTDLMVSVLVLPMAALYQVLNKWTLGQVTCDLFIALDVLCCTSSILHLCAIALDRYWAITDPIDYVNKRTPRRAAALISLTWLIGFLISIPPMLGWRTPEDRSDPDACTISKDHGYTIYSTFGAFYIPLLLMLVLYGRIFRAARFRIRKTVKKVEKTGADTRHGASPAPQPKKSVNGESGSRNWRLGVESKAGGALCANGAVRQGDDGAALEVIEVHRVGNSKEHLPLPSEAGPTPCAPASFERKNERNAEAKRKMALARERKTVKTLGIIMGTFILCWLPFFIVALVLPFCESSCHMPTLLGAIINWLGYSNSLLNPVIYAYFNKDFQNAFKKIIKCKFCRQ
Expect pKi as a plain number equal to -log10 of the molar concentration.

Examples with answers:
molecule | measurement target | value measured
CCCCNC(=O)Oc1cccc2c1-c1cccc3c1[C@@H](C2)N(CCC)CC3 | 5-hydroxytryptamine receptor 1A (Homo sapiens, UniProt P08908) | 7.05
CCCNC(=O)Oc1cccc2c1-c1cccc3c1C(C2)N(CCC)CC3 (racemic) | 5-hydroxytryptamine receptor 1A (Homo sapiens, UniProt P08908) | 6.59
CCCNC(=O)Oc1cccc2c1-c1cccc3c1[C@@H](C2)N(CCC)CC3 | 5-hydroxytryptamine receptor 1A (Homo sapiens, UniProt P08908) | 7.06
CCCN1CCc2cccc3c2C1Cc1cccc(OC(=O)Nc2cccc4ccccc24)c1-3 (centres undefined) | 5-hydroxytryptamine receptor 1A (Homo sapiens, UniProt P08908) | 6.91
CCCN1CCc2cccc3c2C1Cc1cccc(OC(=O)NCC)c1-3 (racemic) | 5-hydroxytryptamine receptor 1A (Homo sapiens, UniProt P08908) | 6.66
CCCN1CCc2cccc3c2[C@H]1Cc1cccc(OC(=O)CCCC[C@@H]2CCSS2)c1-3 | 5-hydroxytryptamine receptor 1A (Homo sapiens, UniProt P08908) | 7.35

Suppose we examine the molecule CCCN1CCc2cccc3c2C1Cc1cccc(OC(=O)NCc2ccccc2)c1-3 (racemic) ; what pKi value has been reported?
6.59

So what does the record say about pKi for CCCN1CCc2cccc3c2[C@H]1Cc1cccc(OC(=O)CCCC[C@H]2CCSS2)c1-3 ?
7.46

Recorded pKi for CCCN1CCc2cccc3c2C1Cc1cccc(OC(=O)NC(C)(C)C)c1-3 (racemic) , please?
6.66
